biological target: Neuropeptide S receptor (Homo sapiens) (UniProt Q6W5P4); experiment: qHTS Assay for Antagonists of the Neuropeptide S Receptor: cAMP Signal Transduction; details: CHO-NPSR cells, cAMP TR-FRET, antagonist mode; series mostly up to 38.3 µM; further: nearly all actives have a fitted effect of over 50% in size
Sequence (Q6W5P4 whole entry, looked up): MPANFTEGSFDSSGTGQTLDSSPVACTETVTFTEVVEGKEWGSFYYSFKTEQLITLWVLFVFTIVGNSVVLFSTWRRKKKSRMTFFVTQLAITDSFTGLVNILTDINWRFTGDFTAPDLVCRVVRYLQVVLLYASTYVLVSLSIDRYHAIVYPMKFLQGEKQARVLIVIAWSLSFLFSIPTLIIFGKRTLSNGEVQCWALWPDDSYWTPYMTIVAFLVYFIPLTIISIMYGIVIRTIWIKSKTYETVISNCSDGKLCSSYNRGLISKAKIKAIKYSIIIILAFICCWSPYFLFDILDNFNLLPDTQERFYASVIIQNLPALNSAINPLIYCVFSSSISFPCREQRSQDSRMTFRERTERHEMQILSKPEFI
Screen size: about 220,000 compounds; about 2,300 (1%) were called active. Not shown: some 6% with an inconclusive outcome. The call rests on the fitted dose curve; in most records, active means well fitted inhibition curve with a large enough effect; inconclusive means small, poorly fitted or top-dose-only effect, or effect the other way; inactive means no such curve, though single readings can be large or run the other way. What follows is part of a selection rich in actives, with near analogues and random picks from the rest.
API: response.call in 1 = active, 0 = inactive

Below, 4 molecules whose answers are already recorded.
{"Molecule": "Cc1cccn2c(=O)c(/C=C3\\SC(=S)N(CC(C)C)C3=O)c(NCCCOC(C)C)nc12", "Assigned label": 0}
{"Molecule": "CCOC(=O)CC1C(=O)NCCN1C(=O)COc1ccc(Br)cc1C (stereo not given)", "Assigned label": 0}
{"Molecule": "CCOC(=O)c1ccc(NC(=O)c2nc[nH]c2C(=O)N[C@@H](CCCCNC(=O)OC(C)(C)C)C(=O)OC(C)(C)C)cc1", "Assigned label": 0}
{"Molecule": "COCCN(CCOC)C(=S)Nc1ccccc1Cl", "Assigned label": 0}

Let us examine a further case.
Task item: Please let me know the test result on file for CCOC(=O)CC1C(=O)NCCN1c1nc2c(C)cccn2c(=O)c1/C=C1\SC(=S)N(C(C)CC)C1=O (stereo not given) .
Reply: 1

---

target: Neuropeptide S receptor (Homo sapiens) (UniProt Q6W5P4); assay: qHTS Assay for Antagonists of the Neuropeptide S Receptor: cAMP Signal Transduction; settings: CHO-NPSR cells, cAMP TR-FRET, antagonist mode; series mostly up to 38.3 µM; further: nearly all actives have a fitted effect of over 50% in size
Hit rate of the full screen: of about 220,000 compounds, about 2,300 (1%) were called active. Inconclusive results (about 6%) are left out. Calls come from the whole dose curve; as a rule, active = well fitted inhibition curve with a large enough effect; inconclusive = small, poorly fitted or top-dose-only effect, or effect the other way; inactive = no such curve, though single readings can be large or run the other way. Shown is part of a subset that was picked to be rich in actives.
Respond only with the outcome that fits, drawn from active, inactive

Past entries and their recorded results:
{"Compound": "O=C(CNCc1cccs1)Nc1cc(S(=O)(=O)N2CCCC2)ccc1Cl", "Assigned label": "inactive"}
{"Compound": "O=C(O)c1cccnc1Sc1ncnc2sc3c(c12)CCC3", "Assigned label": "inactive"}
{"Compound": "CCN1CCN(c2ccc([N+](=O)[O-])cc2C(=O)c2ccc(Cl)cc2)CC1", "Assigned label": "inactive"}
{"Compound": "Cc1ccc(C)c(S(=O)(=O)N2CC(=O)Nc3ccccc32)c1", "Assigned label": "inactive"}
{"Compound": "O=C1CCC(=O)N(O)CCCCCNC(=O)CCC(=O)N(O)CCCCCNC(=O)CCC(=O)N(O)CCCCCN1", "Assigned label": "inactive"}
{"Compound": "NC(=O)NC(=O)CSc1nc2cc([N+](=O)[O-])ccc2n1-c1cccc(C(F)(F)F)c1", "Assigned label": "inactive"}
{"Compound": "CN(c1ccccc1)S(=O)(=O)c1ccc(Cl)c(C(=O)OCC(=O)NCc2ccco2)c1", "Assigned label": "inactive"}
{"Compound": "O=C1CN(c2nc(-c3ccccc3)c3cc(Br)ccc3n2)c2ccccc2N1", "Assigned label": "active"}

Task item: Outcome logged for COc1ccc(/C(O)=C2/C(=O)C(=O)N(c3nc(C)c(C)s3)C2c2ccco2)cc1 (stereo not given) in this assay:
Reply: active

Task item: Hey, what did the test say about `Cc1cc(-c2nc(C)c(-c3nnc(SCC(=O)Nc4ccccc4)n3C)s2)no1` ?
Reply: inactive

---

target: Neuropeptide S receptor (Homo sapiens) (UniProt Q6W5P4); test: qHTS Assay for Antagonists of the Neuropeptide S Receptor: cAMP Signal Transduction; settings: CHO-NPSR cells, cAMP TR-FRET, antagonist mode; series mostly up to 38.3 µM; further: nearly all actives have a fitted effect of over 50% in size
Among all 220,000 compounds or so, about 2,300 (1%) were called active. Another 6% or so got no clear call; they are omitted. The call rests on the fitted dose curve; in most records, active means well fitted inhibition curve with a large enough effect; inconclusive means small, poorly fitted or top-dose-only effect, or effect the other way; inactive means no such curve, though single readings can be large or run the other way. The full list was thinned out, with actives kept by preference.
Would you mind answering with one of these outcomes? active, inactive

Please review the following examples before continuing.
{"Molecule": "Cc1ccc2cc(/C=N/Nc3ccc(C(=O)O)cc3)c(Cl)nc2c1", "Assigned label": "inactive"}
{"Molecule": "Cc1ccc(-c2csc(NC(=O)c3cccs3)n2)cc1", "Assigned label": "inactive"}
{"Molecule": "Cc1cc(-c2n[nH]c(=S)n2/N=C/c2ccco2)n[nH]1", "Assigned label": "inactive"}
{"Molecule": "Cc1cc(-c2n[nH]c(=S)n2/N=C/C(Br)=C/c2ccccc2)n[nH]1", "Assigned label": "active"}
{"Molecule": "CCCc1ccc(OCc2ccc(C(=O)N/N=C/c3cccc([N+](=O)[O-])c3)o2)c(OC)c1", "Assigned label": "active"}

Task item: Can you look up the reported call for Cc1ccc(C2C3=C(Nc4[nH]n(-c5ccccc5)c(=O)c42)c2ccccc2C3=O)cc1 (stereo not given) for me?
Reply: inactive

Task item: Please let me know the test result on file for `COC(=O)c1ccc(COc2ccc(/C=N/NC(=O)C(=O)Nc3ccc(OC)cc3)cc2OC)o1` .
Reply: inactive

---

Molecular target: Neuropeptide S receptor (Homo sapiens) (UniProt Q6W5P4)
Assay: qHTS Assay for Antagonists of the Neuropeptide S Receptor: cAMP Signal Transduction; further: nearly all actives have a fitted effect of over 50% in size; further: potency means the concentration at half of the fitted maximal effect
Details: CHO-NPSR cells, cAMP TR-FRET, antagonist mode; series mostly up to 38.3 µM
Excerpt: NIH Chemical Genomics Center [NCGC] NIH Molecular Libraries Probe Production centers Network [MLPCN] […] This change in intracellular cAMP level can be detected by a homogeneous LANCE cAMP assay based on the TR-FRET (time resolved fluorescence resonance energy transfer) between a europium-labeled cAMP tracer complex and a cAMP-specific antibody labeled with Alexa Fluor 647. […] Both emission signals from the FRET donor (620 nm) and the acceptor (665 nm) can be detected by a plate reader in the TRF mode. […]
Out of some 220,000 compounds screened, about 2,300 (1%) were called active. Roughly 6% stayed inconclusive and do not appear here. Only a selection was taken, and actives are over-represented in it overall.
Readout type: Potency

These solved cases illustrate the format of a correct answer.
{"Compound": "CCC1=NN2C(=N)/C(=C/c3cc(C)n(-c4ccccc4)c3C)C(=O)N=C2S1", "Test value": "inactive"}
{"Compound": "N#C/C(=C1\\CCCN1)c1nc(-c2ccccc2)cs1", "Test value": "inactive"}
{"Compound": "C/C(Cc1ccccc1)=N\\NC(=O)CNC(=O)c1ccc2c(c1)OCCO2", "Test value": "inactive"}
{"Compound": "CC(C)(C)c1ccc(CCC2OCC(CN3CCOCC3)O2)cc1 (stereo not given)", "Test value": "inactive"}
{"Compound": "CC1(C)CCCC2=C1CC1C(=O)N(c3ccccc3)C(=O)C1C2 (stereo not given)", "Test value": "inactive"}

The recorded Potency for `CC(=O)c1c(C)[nH]c(=S)c(C#N)c1-c1ccc(F)cc1` is inactive

---

Below, each of the compounds is paired with its reported activity change, negative = inhibition value.
Biological target: Neuropeptide S receptor (Homo sapiens) (UniProt Q6W5P4)
Experiment: qHTS Assay for Antagonists of the Neuropeptide S Receptor: cAMP Signal Transduction; further: nearly all actives have a fitted effect of over 50% in size; on activity change, negative = inhibition: on the % scale 0 is the no-effect control and ±100 the full control effect
Conditions: CHO-NPSR cells, cAMP TR-FRET, antagonist mode; series mostly up to 38.3 µM
Excerpt: NIH Chemical Genomics Center [NCGC] NIH Molecular Libraries Probe Production centers Network [MLPCN] […] This change in intracellular cAMP level can be detected by a homogeneous LANCE cAMP assay based on the TR-FRET (time resolved fluorescence resonance energy transfer) between a europium-labeled cAMP tracer complex and a cAMP-specific antibody labeled with Alexa Fluor 647. […] Both emission signals from the FRET donor (620 nm) and the acceptor (665 nm) can be detected by a plate reader in the TRF mode. […]
Out of some 220,000 compounds screened, about 2,300 (1%) were called active. Roughly 6% stayed inconclusive and do not appear here. Many of the other results were omitted from the sample, so actives are more common in it than they were.

Study these solved cases before continuing.
{"Compound": "NC(=S)Nc1c(Cl)cccc1Cl", "activity change, negative = inhibition": "7.17% [at 7.67 µM] (inactive)"}
{"Compound": "O=S(=O)(NCc1ccco1)c1cnc(Cl)c(Cl)c1", "activity change, negative = inhibition": "25.6% [at 7.67 µM] (inactive)"}
{"Compound": "N#CC1=C(N)Oc2c(sc3ccccc23)C1c1ccco1 (stereo unspecified)", "activity change, negative = inhibition": "-7.26% [at 7.67 µM] (inactive)"}
{"Compound": "C/C(=N\\OCC(=O)O)c1ccc(Cl)cc1", "activity change, negative = inhibition": "9.86% [at 7.67 µM] (inactive)"}
{"Compound": "CC(C)S(=O)(=O)c1csc(NC(=O)Nc2ccc(Cl)cc2)c1Cl", "activity change, negative = inhibition": "14.8% [at 7.67 µM] (inactive)"}

Now turn to the next compound.
For reference, reported activity change, negative = inhibition for `Cc1ccc(NC(=O)C/C(N)=N/O)cc1Cl` stands at -0.778% [at 7.67 µM] (inactive)
